Listed here: items and their measured inhibition at 0.5 µM.
biological target: human Cereblon WT GST-tagged protein (Homo sapiens, UniProt Q96SW2); construct: purchased CISBIO 64BDCRBNPEH; assay: CRBN-binding affinity, HTRF (CEREBLON BINDING kit); conditions: read-out: Inhibition Rate at 0.5 µM (%)
Sequence (Q96SW2 whole entry): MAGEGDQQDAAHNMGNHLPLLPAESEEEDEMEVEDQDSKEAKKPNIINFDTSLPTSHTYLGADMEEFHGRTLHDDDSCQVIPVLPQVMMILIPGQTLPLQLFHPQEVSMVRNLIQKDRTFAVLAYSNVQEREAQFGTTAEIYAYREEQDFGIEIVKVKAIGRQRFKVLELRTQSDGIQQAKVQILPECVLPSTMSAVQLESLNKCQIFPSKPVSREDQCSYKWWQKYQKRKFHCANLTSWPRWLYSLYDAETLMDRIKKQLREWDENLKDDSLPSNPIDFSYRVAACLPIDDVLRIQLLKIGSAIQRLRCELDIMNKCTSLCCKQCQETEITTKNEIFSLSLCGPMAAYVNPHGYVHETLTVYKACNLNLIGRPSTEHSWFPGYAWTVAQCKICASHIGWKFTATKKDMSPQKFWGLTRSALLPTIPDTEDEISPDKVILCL
Readout Type: inhibition at 0.5 µM

# Compound, Readout Type, Result
records = [
    ("N#CC1(CNc2cccc(-c3cc(NC4CCN(Cc5ccc6c(c5)C(=S)N(C5CCC(=O)NC5=O)C6)CC4)ncc3Cl)n2)CCOCC1 (stereo not shown)", "inhibition at 0.5 µM", "53 to 60%"),
    ("CN(C)C(=O)c1cc2cnc(Nc3ccc(N4CCN(Cc5ccc6c(c5)CN(C5CCC(=O)NC5=O)C6=S)CC4)cn3)nc2n1C1CCCC1 (stereo not shown)", "inhibition at 0.5 µM", "40 to 53%"),
    ("Nc1nnc(-c2cc(F)ccc2O)cc1N1CC2CCC(C1)N2Cc1ccc2c(c1)C(=S)N(C1CCC(=O)NC1=O)C2 (stereo not shown)", "inhibition at 0.5 µM", "40 to 53%"),
    ("O=C1CCC(N2Cc3cc(CN4CCC(n5cc(NC(=O)c6coc(-c7ccnc(NCC(F)(F)F)c7)n6)c(C(F)F)n5)CC4)ccc3C2=S)C(=O)N1 (stereo not shown)", "inhibition at 0.5 µM", "20 to 30%"),
    ("N#CC1(CNc2nc(-c3cc(NC4CCN(Cc5ccc6c(c5)CN(C5CCC(=O)NC5=O)C6=S)CC4)ncc3Cl)cs2)CCOCC1 (stereo not shown)", "inhibition at 0.5 µM", "53 to 60%"),
    ("Nc1nnc(-c2cc(F)ccc2O)cc1N1CC2CCC(C1)N2Cc1ccc2c(c1)CN(C1CCC(=O)NC1=O)C2=S (stereo not shown)", "inhibition at 0.5 µM", "40 to 53%"),
    ("Cc1cc(Nc2ncc(Cl)c(Nc3ccccc3S(=O)(=O)C(C)C)n2)c(OC(C)C)cc1C1CCN(Cc2ccc3c(c2)CN(C2CCC(=O)NC2=O)C3=S)CC1 (stereo not shown)", "inhibition at 0.5 µM", "40 to 53%"),
    ("CCN(c1cc(-c2ccc(N3CCN(Cc4ccc5c(c4)CN(C4CCC(=O)NC4=O)C5=S)CC3)cc2)cc(C(=O)NCc2c(C)cc(C)[nH]c2=O)c1C)C1CCOCC1 (stereo not shown)", "inhibition at 0.5 µM", "60 to 80%"),
    ("COc1cc(N2CCN(Cc3ccc4c(c3)CN(C3CCC(=O)NC3=O)C4=S)CC2)ccc1Nc1ncc(Cl)c(Nc2ccccc2P(C)(C)=O)n1 (stereo not shown)", "inhibition at 0.5 µM", "80 to 100%"),
    ("Nc1nnc(-c2ccccc2O)cc1N1CCN(Cc2ccc3c(c2)CN(C2CCC(=O)NC2=O)C3=S)CC1 (stereo not shown)", "inhibition at 0.5 µM", "60 to 80%"),
    ("O=C1CCC(N2Cc3c(CN4CCN(c5ccc(CC(=O)Nc6cc(C7CCC7)[nH]n6)cc5)CC4)cccc3C2=S)C(=O)N1 (stereo not shown)", "inhibition at 0.5 µM", "60 to 80%"),
    ("COc1ccc2cn(C3CCN(Cc4ccc5c(c4)CN(C4CCC(=O)NC4=O)C5=S)CC3)nc2c1NC(=O)c1cccc(C(F)(F)F)c1 (stereo not shown)", "inhibition at 0.5 µM", "60 to 80%"),
    ("O=C1CCC(N2Cc3ccc(CN4CCN(c5ccc(CC(=O)Nc6cc(C7CCC7)[nH]n6)cc5)CC4)cc3C2=S)C(=O)N1 (stereo not shown)", "inhibition at 0.5 µM", "60 to 80%"),
    ("CC(C)(O)c1cc2nn(C3CCN(Cc4ccc5c(c4)CN(C4CCC(=O)NC4=O)C5=S)CC3)cc2cc1NC(=O)c1cccc(C(F)(F)F)n1 (stereo not shown)", "inhibition at 0.5 µM", "60 to 80%"),
    ("Nc1nnc(-c2cc(F)ccc2O)cc1N1CCN(Cc2ccc3c(c2)CN(C2CCC(=O)NC2=O)C3=S)CC1 (stereo not shown)", "inhibition at 0.5 µM", "60 to 80%"),
    ("Cn1ncc(Cl)c1-c1cc(C(=O)N[C@@H](Cc2cccc(F)c2)CN2CCN(Cc3ccc4c(c3)CN(C3CCC(=O)NC3=O)C4=S)CC2)sc1Cl (stereo partly shown)", "inhibition at 0.5 µM", "60 to 80%"),
    ("O=C1CCC(N2Cc3cc(CN4CCC(n5cc(NC(=O)c6cnn7ccc(N8CCOCC8)nc67)c(C(F)F)n5)CC4)ccc3C2=S)C(=O)N1 (stereo not shown)", "inhibition at 0.5 µM", "80 to 100%"),
    ("N#CC1(CNc2cccc(-c3cc(NC4CCN(Cc5cccc6c5CN(C5CCC(=O)NC5=O)C6=S)CC4)ncc3Cl)n2)CCOCC1 (stereo not shown)", "inhibition at 0.5 µM", "30 to 40%"),
    ("CN(c1cccc(CNc2nc(Nc3ccc(N4CCN(Cc5ccc6c(c5)C(=S)N(C5CCC(=O)NC5=O)C6)CC4)cc3)ncc2C(F)(F)F)c1)S(C)(=O)=O (stereo not shown)", "inhibition at 0.5 µM", "53 to 60%"),
    ("O=C1CCC(N2Cc3cc(CN4CCN(C5CCN(c6ncc(C(=O)Nc7ccc(OC(F)(F)Cl)cc7)cc6-c6cc[nH]n6)CC5)CC4)ccc3C2=S)C(=O)N1 (stereo not shown)", "inhibition at 0.5 µM", "20 to 30%"),
    ("CN(c1nccnc1CNc1nc(Nc2ccc(N3CCN(Cc4ccc5c(c4)C(=S)N(C4CCC(=O)NC4=O)C5)CC3)cc2)ncc1C(F)(F)F)S(C)(=O)=O (stereo not shown)", "inhibition at 0.5 µM", "40 to 53%"),
    ("Nc1nnc(-c2cc(F)ccc2O)cc1N1CCN(Cc2cccc3c2CN(C2CCC(=O)NC2=O)C3=S)CC1 (stereo not shown)", "inhibition at 0.5 µM", "40 to 53%"),
    ("CC(=O)N1CCCN(c2nc(NCCc3cccs3)nc(N3CCN(Cc4ccc5c(c4)CN(C4CCC(=O)NC4=O)C5=S)CC3)n2)CC1 (stereo not shown)", "inhibition at 0.5 µM", "53 to 60%"),
    ("CCc1cc2c(cc1N1CCN(Cc3ccc4c(c3)CN(C3CCC(=O)NC3=O)C4=S)CC1)C(C)(C)c1[nH]c3cc(C#N)ccc3c1C2=O (stereo not shown)", "inhibition at 0.5 µM", "40 to 53%"),
    ("CC(C)Nc1cc(-n2ccc3cc(C#N)cnc32)ncc1C(=O)NC1CCN(Cc2ccc3c(c2)CN(C2CCC(=O)NC2=O)C3=S)CC1 (stereo not shown)", "inhibition at 0.5 µM", "60 to 80%"),
]

###

tested on: Jurkat; test: Tumor cell proliferation inhibition (CellTiter-Meiluncell Luminescent Cell Viability Assay); conditions: Homo sapiens, 96 hours, Table I-5, designed based on the IRAK4 inhibitors, read-out: Inhibitory activity (IC50, nM) Jurkat

# Molecule, IC50
measured = [
    ("COc1cc2nn(C3CCN(Cc4cccc5c4CN(C4CCC(=O)NC4=O)C5=S)CC3)cc2cc1NC(=O)c1cccc(C(F)(F)F)n1 (stereo not shown)", "500 to 1000 nM"),
]

###

target: human Cereblon WT GST-tagged protein (Homo sapiens, UniProt Q96SW2); construct: purchased CISBIO 64BDCRBNPEH; assay: CRBN-binding affinity, HTRF (CEREBLON BINDING kit); conditions: read-out: Inhibition Rate at 0.5 µM (%)
Readout Type: inhibition at 0.5 µM

# Compound, Result
records = [
    ("O=C1CCC(N2Cc3cc(CN4CCN(c5ncc(C(=O)Nc6ccc(OC(F)(F)Cl)cc6)cc5-c5cc[nH]n5)CC4)ccc3C2=S)C(=O)N1 (stereo not drawn) [GT-08769]", "53 to 60%"),
    ("COc1cc(N2CCC(N(C)Cc3cccc4c3CN(C3CCC(=O)NC3=O)C4=S)CC2)c(C)cc1Nc1ncc(Br)c(Nc2ccc3nccnc3c2P(C)(C)=O)n1 (stereo not drawn) [GT-08758]", "53 to 60%"),
    ("Cc1cc(-c2nc(C(=O)Nc3cc4oc(N5CCOCC5)nc4nc3N3CC[C@@H](O)C3)co2)ccn1 [emavusertib, Emavusertib, reference compound]", "0 to 10%"),
    ("Cc1ccsc1C(=O)n1nc(Nc2ccc(S(=O)(=O)N3CCN(Cc4ccc5c(c4)C(=S)N(C4CCC(=O)NC4=O)C5)CC3)cc2)nc1N (stereo not drawn) [GT-08798]", "53 to 60%"),
    ("O=C1CCC(N2Cc3cc(CN4C[C@H]5C[C@@H]4CN5c4ccc(-c5cc(F)c6c(c5)C(=O)N(C(C(=O)Nc5nccs5)c5ncn7c5CCC7)C6)cc4)ccc3C2=S)C(=O)N1 (stereo partly drawn) [GT-08757]", "53 to 60%"),
    ("Nc1nnc(-c2ccccc2O)cc1N1CCN(Cc2ccc3c(c2)C(=S)N(C2CCC(=O)NC2=O)C3)CC1 (stereo not drawn) [GT-08787]", "60 to 80%"),
]
